Just for reference, PubChem BioAssay AID602275 is where these values come from.

Biological target: NS3h 2a[JFH1]
Experiment: NS3h unwinding inhibitors, genotype 1b and 2a – biochemical, real-time fluorescence, strains con1 and JFH1, set 3, selectivity assay for HCV NS3 helicase inhibitor project, late-stage follow-up (AID 602275)
Conditions: Recombinant NS3h
Calls of active or inactive are those of the source. How the calls were made is not given here.
The reply should be one of these categories: active, inactive

Reference set (5 entries):
>>> answer_label("Cc1cc2sc(-c3ccc4nc(-c5ccc(N)cc5)sc4c3)nc2cc1S(=O)(=O)O")
"active"
>>> answer_label("Cc1ccc2nc(-c3ccc4nc(-c5ccc6nc(-c7ccc(N)cc7)sc6c5)sc4c3)sc2c1S(=O)(=O)O")
"active"
>>> answer_label("Cc1ccc2nc(-c3ccc4nc(-c5ccc(NC(=O)c6ccc(CNC(=O)OCC7c8ccccc8-c8ccccc87)cc6)cc5)sc4c3)sc2c1S(=O)(=O)O")
"active"
>>> answer_label("Cc1ccc2nc(-c3ccc4nc(-c5ccc(NC(=O)c6ccc(Cl)c(Cl)c6)cc5)sc4c3)sc2c1S(=O)(=O)O")
"active"
>>> answer_label("Cc1ccc2nc(-c3ccc4nc(-c5ccc(NC(=O)c6ccc7nc(-c8ccc(N)cc8)sc7c6)cc5)sc4c3)sc2c1S(=O)(=O)O")
"active"

query: Name the outcome recorded for `Cc1ccc2nc(-c3ccc4nc(-c5ccc(NC(=O)c6ccncc6)cc5)sc4c3)sc2c1S(=O)(=O)O` in the assay.
result: inactive

query: Would you mind telling me which call this test gave `Cc1ccc2nc(-c3ccc4nc(-c5ccc(NC(=O)Nc6ccc(F)cc6)cc5)sc4c3)sc2c1S(=O)(=O)O` ?
result: active

query: What did the test return for `Cc1ccc2nc(-c3ccc(NC(=O)c4ccc(NC(=O)c5ccc(C(F)(F)F)cc5)cc4)cc3)sc2c1S(=O)(=O)O` ?
result: active

query: Which result was noted for this compound in the test: `Cc1ccc2nc(-c3ccc4nc(-c5ccc(NC(=S)Nc6ccccc6)cc5)sc4c3)sc2c1S(=O)(=O)O`
result: active

query: Assay outcome for `Cc1ccc2nc(-c3ccc(NC(=O)c4ccc(NC(=S)Nc5ccccc5)cc4)cc3)sc2c1S(=O)(=O)O` : what was it?
result: active

query: Outcome? `Cc1ccc2nc(-c3ccc4nc(-c5ccc(NC(=O)c6cc(F)ccc6C(F)(F)F)cc5)sc4c3)sc2c1S(=O)(=O)O`
result: active

* * *

Biological target: NS3h 2a[JFH1]
Test: NS3h unwinding inhibitors, genotype 1b and 2a – biochemical, real-time fluorescence, strains con1 and JFH1, set 3, selectivity assay for HCV NS3 helicase inhibitor project, late-stage follow-up (AID 602275)
Settings: Recombinant NS3h
Active and inactive are the calls of the source. The rule behind the calls is not given here.
observable: outcome

The cases that follow already have their outcome on record.
>>> observed_value("O=C(Nc1nc2ccc(Br)cc2s1)c1ccc2ncsc2c1")
"inactive"
>>> observed_value("COc1ccc2sc(NC(=O)c3ccc4ncsc4c3)nc2c1")
"inactive"
>>> observed_value("CC(=O)Nc1ccc(-c2nc3ccc(-c4nc5ccc(C)c(S(=O)(=O)O)c5s4)cc3s2)cc1")
"inactive"
>>> observed_value("Cc1ccc2nc(-c3ccc(NC(=O)c4ccc(NS(=O)(=O)c5ccccc5)cc4)cc3)sc2c1S(=O)(=O)O")
"inactive"

// next item, outcome requested
query: Item under review: `Cc1ccc2nc(-c3ccc(NC(=O)c4ccc(C(F)(F)F)cc4)cc3)sc2c1S(=O)(=O)O` . Reported outcome?
result: inactive
